# Test system: HepaRG spheroids
# Assay Protocol: Combined HCI (HCS) and cellular ATP 3D assay in HepaRG spheroids
# Cond: Homo sapiens, HepaRG, read-out: HCS endpoint AC50
Value Kind: AC50 (µM)

>>> numeric_value("COc1ccc2c(c1)c(CC(=O)O)c(C)n2C(=O)c1ccc(Cl)cc1")
215
>>> numeric_value("Cc1cc2c(cc1CC(=O)c1sccc1S(=O)(=O)Nc1onc(C)c1Cl)OCO2")
9.74
>>> numeric_value("CN(C)CCCN1c2ccccc2Sc2ccc(Cl)cc21 [chlorpromazine, reference compound]")
8.8
>>> numeric_value("CCN(CC)CC#CCOC(=O)C(O)(c1ccccc1)C1CCCCC1 (stereo not drawn)")
64.5
>>> numeric_value("CCN(CC)CCNC(=O)c1c(C)[nH]c(/C=C2\\C(=O)Nc3ccc(F)cc32)c1C")
1.71
>>> numeric_value("CS(=O)(=O)CCNCc1ccc(-c2ccc3ncnc(Nc4ccc(OCc5cccc(F)c5)c(Cl)c4)c3c2)o1")
2.25
